- Protocol: P-glycoprotein assay, line overexpressing P-gp
- Format: cell-based, human
- Measurement parameters: human; 48 h exposure, without verapamil; read-out: GI50 SW1573/PGP w/o Verapamil
Reported property: GI50 at 48 h
Please answer in the form of a number followed by its unit of measurement.

Examples with their reported GI50 at 48 h follow.
                                   compound  endpoint_value
0  c1ccc(C[Se]CCc2ccc3c(c2)OCO3)cc1 [Compound 38]           29 µM
1  O=C(CCC[Se][Se]CCCC(=O)NCCc1ccc(O)c(O)c1)NCCc1ccc(O)c(O)c1 [Compound 16]          5.1 µM

Now take the following compound into account.
# GI50 at 48 h (compound: c1cc2c(cc1C[Se][Se]Cc1ccc3c(c1)OCO3)OCO2 [Compound 39] ) is 18 µM

---

- Tested on: HeLa (cervix)
- Protocol: Antiproliferative activity, NCI protocol
- Type: cell-based, human
- Measurement parameters: Homo sapiens, HeLa, read-out: GI50 HeLa (Cervix)
Hi! Could you tag entries with GI50 below 30 µM as YES, and those at or above as NO? Much appreciated.

                            chemical_smiles  class
0        O=c1c2ccccc2[se]n1CCc1ccc(O)c(O)c1    YES
1  c1cc2c(cc1CCC[Se][Se]CCCc1ccc3c(c1)OCO3)OCO2     NO
2  O=C(CCC[Se][Se]CCCC(=O)NCCc1ccc2c(c1)OCO2)NCCc1ccc2c(c1)OCO2    YES
3                           N#C[Se]CCC(=O)O     NO
4                O=C(O)CCC[Se][Se]CCCC(=O)O     NO

We next turn to a different molecule, shown below.
# TODO verify GI50 < 30 µM strictly for this molecule: N#C[Se]CCC(=O)NCCc1ccc(O)c(O)c1
YES

---

- Protocol: P-glycoprotein assay, line overexpressing P-gp
- Format: cell-based, human
- Measurement parameters: human, with verapamil (concentration not stated); 48 h exposure, with verapamil; read-out: GI50 SW1573/PGP w Verapamil
Reported property: GI50 at 48 h (µM)
Give just the number in µM; leave the unit off.

Examples with their reported GI50 at 48 h follow.
>>> df
                            chemical_smiles  display_unit  endpoint_value
0  O=C(CCC[Se][Se]CCCC(=O)NCCc1ccc(O)c(O)c1)NCCc1ccc(O)c(O)c1            µM             5.1
1         N#C[Se]CCCC(=O)NCCc1ccc2c(c1)OCO2            µM             2.5

Now take the following compound into account.
# GI50 at 48 h (compound: N#C[Se]Cc1ccc2c(c1)OCO2 ) is 7

---

Here, each record is paired with measured GI50 at 48 h data.
- Protocol: P-glycoprotein assay, line overexpressing P-gp
- Type: cell-based, human
- Measurement parameters: human; 48 h exposure, without verapamil; read-out: GI50 SW1573/PGP w/o Verapamil
Give just the number in µM; leave the unit off.

Examples with their reported GI50 at 48 h follow.
In [3]: df
Out[3]:
                            chemical_smiles  display_unit  endpoint_value
0  c1cc2c(cc1CC[Se][Se]CCc1ccc3c(c1)OCO3)OCO2            µM             3.9
1                  N#C[Se]CCc1ccc2c(c1)OCO2            µM             6.8
2                   N#C[Se]Cc1ccc2c(c1)OCO2            µM             7.1
3  O=C(CC[Se][Se]CCC(=O)NCCc1ccc(O)c(O)c1)NCCc1ccc(O)c(O)c1            µM               5

Now take the following compound into account.
# GI50 at 48 h (compound: N#C[Se]CCCC(=O)NCCc1ccc2c(c1)OCO2 ) is 3.3

---

- Tested on: WiDr (colon)
- Protocol: Antiproliferative activity, NCI protocol
- Format: cell-based, human
- Measurement parameters: Homo sapiens, WiDr; drug resistant line; read-out: GI50 WiDr (Colon)
Reported property: GI50 (µM)
Give just the number in µM; leave the unit off.

Examples with their reported GI50 follow.
In [3]: df
Out[3]:
                            chemical_smiles  target_or_test_system  reported_property  display_unit  endpoint_value
0  c1cc2c(cc1C[Se][Se]Cc1ccc3c(c1)OCO3)OCO2           WiDr (colon)               GI50            µM             1.6
1  O=C(CCC[Se][Se]CCCC(=O)NCCc1ccc(O)c(O)c1)NCCc1ccc(O)c(O)c1           WiDr (colon)               GI50            µM             3.9

Result for O=C(O)CC[Se][Se]CCC(=O)O , tested on WiDr (colon), GI50: 5.6

Result for N#C[Se]CCCC(=O)NCCc1ccc2c(c1)OCO2 , tested on WiDr (colon), GI50: 0.41

Result for N#C[Se]Cc1ccc2c(c1)OCO2 , tested on WiDr (colon), GI50: 2

Result for c1ccc(C[Se]CCc2ccc3c(c2)OCO3)cc1 , tested on WiDr (colon), GI50: 14

Result for c1cc2c(cc1CC[Se][Se]CCc1ccc3c(c1)OCO3)OCO2 , tested on WiDr (colon), GI50: 1.2

Result for O=C(CC[Se][Se]CCC(=O)NCCc1ccc(O)c(O)c1)NCCc1ccc(O)c(O)c1 , tested on WiDr (colon), GI50: 31

Result for N#C[Se]CCc1ccc2c(c1)OCO2 , tested on WiDr (colon), GI50: 1.3

---

- Tested on: A549 (non-small cell lung)
- Protocol: Antiproliferative activity, NCI protocol
- Format: cell-based, human
- Measurement parameters: Homo sapiens, A549, read-out: GI50 A549 (Lung)
Reported property: GI50

Examples with their reported GI50 follow.
>>> print(df.to_string())
                            chemical_smiles       target_or_test_system  reported_property  endpoint_value
0        O=c1c2ccccc2[se]n1CCc1ccc(O)c(O)c1  A549 (non-small cell lung)               GI50           21 µM
1  O=C(CCC[Se][Se]CCCC(=O)NCCc1ccc2c(c1)OCO2)NCCc1ccc2c(c1)OCO2  A549 (non-small cell lung)               GI50         0.27 µM
2  c1cc2c(cc1CCC[Se][Se]CCCc1ccc3c(c1)OCO3)OCO2  A549 (non-small cell lung)               GI50           32 µM
3                O=C(O)CCC[Se][Se]CCCC(=O)O  A549 (non-small cell lung)               GI50           46 µM
4           N#C[Se]CCC(=O)NCCc1ccc(O)c(O)c1  A549 (non-small cell lung)               GI50           28 µM

# GI50 (compound: N#C[Se]CCC(=O)O ) is 18 µM

---

- Test system: SW1573
- Protocol: P-glycoprotein assay, wild type line
- Type: cell-based
- Measurement parameters: Homo sapiens, 48 h exposure, without verapamil, read-out: GI50 SW1573 w/o Verapamil
Here, each record is paired with measured log10 GI50 data.
Answers are given as log10 of GI50 in nM.

Examples with their reported log10 GI50 follow.
In [3]: df
Out[3]:
                            chemical_smiles  endpoint_value
0  c1cc2c(cc1CC[Se][Se]CCc1ccc3c(c1)OCO3)OCO2            3.28
1                  N#C[Se]CCc1ccc2c(c1)OCO2            3.62
2  O=C(CC[Se][Se]CCC(=O)NCCc1ccc(O)c(O)c1)NCCc1ccc(O)c(O)c1            3.52

# log10 GI50 (molecule: O=C(CCC[Se][Se]CCCC(=O)NCCc1ccc(O)c(O)c1)NCCc1ccc(O)c(O)c1 ) is 3.43

# log10 GI50 (molecule: c1cc2c(cc1C[Se][Se]Cc1ccc3c(c1)OCO3)OCO2 ) is 3.48

# log10 GI50 (molecule: c1ccc(C[Se]CCc2ccc3c(c2)OCO3)cc1 ) is 4.43

# log10 GI50 (molecule: N#C[Se]CCCC(=O)NCCc1ccc2c(c1)OCO2 ) is 3.04

# log10 GI50 (molecule: N#C[Se]Cc1ccc2c(c1)OCO2 ) is 3.36

Hey, just so you know, these numbers are from paper PMC7692337.
